Target: HDAC6 (Homo sapiens)
Construct: purchased Reaction Biology Corporation (assay run by the CRO)
Sequence (Q9UBN7 1-1215): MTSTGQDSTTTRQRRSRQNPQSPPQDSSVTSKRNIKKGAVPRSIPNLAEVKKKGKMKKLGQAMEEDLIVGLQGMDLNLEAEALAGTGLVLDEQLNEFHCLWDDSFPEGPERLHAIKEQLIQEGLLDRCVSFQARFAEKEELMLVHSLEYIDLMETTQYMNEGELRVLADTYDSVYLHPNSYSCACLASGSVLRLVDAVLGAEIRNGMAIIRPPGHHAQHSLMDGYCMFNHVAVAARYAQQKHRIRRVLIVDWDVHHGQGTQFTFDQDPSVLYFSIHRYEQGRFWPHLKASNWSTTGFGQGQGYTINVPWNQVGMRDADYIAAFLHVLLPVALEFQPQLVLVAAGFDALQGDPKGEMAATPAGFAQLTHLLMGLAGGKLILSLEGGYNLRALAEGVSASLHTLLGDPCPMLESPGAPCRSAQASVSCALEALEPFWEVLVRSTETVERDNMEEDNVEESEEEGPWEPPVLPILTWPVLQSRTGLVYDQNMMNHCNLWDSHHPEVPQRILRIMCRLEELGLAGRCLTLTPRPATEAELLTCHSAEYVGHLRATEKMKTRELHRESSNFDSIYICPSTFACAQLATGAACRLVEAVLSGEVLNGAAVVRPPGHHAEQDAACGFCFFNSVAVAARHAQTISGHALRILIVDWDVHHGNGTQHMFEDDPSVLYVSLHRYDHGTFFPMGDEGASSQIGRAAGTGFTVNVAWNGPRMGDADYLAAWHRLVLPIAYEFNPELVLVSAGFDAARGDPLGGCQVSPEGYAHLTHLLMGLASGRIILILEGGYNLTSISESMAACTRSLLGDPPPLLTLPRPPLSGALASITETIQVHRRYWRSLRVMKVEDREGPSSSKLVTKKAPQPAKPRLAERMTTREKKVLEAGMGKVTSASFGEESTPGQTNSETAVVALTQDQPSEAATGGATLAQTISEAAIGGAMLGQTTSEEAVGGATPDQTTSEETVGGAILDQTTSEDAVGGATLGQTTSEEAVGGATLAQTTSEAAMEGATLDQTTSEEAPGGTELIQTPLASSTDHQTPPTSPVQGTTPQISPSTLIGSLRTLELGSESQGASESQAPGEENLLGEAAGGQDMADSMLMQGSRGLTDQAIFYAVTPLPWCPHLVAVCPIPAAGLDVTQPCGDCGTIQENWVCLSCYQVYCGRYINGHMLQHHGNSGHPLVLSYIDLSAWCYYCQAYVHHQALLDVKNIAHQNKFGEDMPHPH
Experiment: HDAC6 inhibition, full IC50 measurement (Reaction Biology; fluorogenic p53 peptide RHKK(Ac)AMC)
Assay type: biochemical
Conditions: Conc. 4.57E-09 M, t1
Peptide text beside a SMILES is read from it.
Binary classification by HDAC6 activity raw data (signal), with 500000 as an inclusive lower bound for class 1; all other cases are class 0.

Take a look at these entries with their results.
N=C(N)NCCC[C@@H]1NC(=O)[C@@H](CCCNC(=N)N)NC(=O)[C@H]2CCCN2C(=O)[C@@H](Cc2c[nH]cn2)NC(=O)[C@H](Cc2ccc(O)cc2)NC(=O)[C@H](CCCCCS)NC(=O)[C@H](CCc2ccccc2)NC(=O)[C@@H](CO)NC(=O)[C@H](CC(=O)O)NC1=O [des3.3.1, SHA-Tyr-dHis-dPro-dArg-Arg-Asp-dSer-C27] (HELM PEPTIDE1{[O=C([C@H](CCCCCS)N[*:1])[*:2]].Y.[dH].[dP].[dR].R.D.[dS].[O=C([C@H](CCc1ccccc1)N[*:1])[*:2]]}$PEPTIDE1,PEPTIDE1,1:R1-9:R2$$$V2.0) = class 0
N=C(N)NCCC[C@@H]1NC(=O)[C@H](Cc2c[nH]c3ccccc23)NC(=O)[C@H](CC(=O)O)NC(=O)[C@@H](CO)NC(=O)[C@H](Cc2c[nH]c3ccccc23)NC(=O)[C@H](CCCCCS)NC(=O)[C@H](CCC(N)=O)NC1=O [des4.1.0, SHA-Trp-dSer-Asp-Trp-Arg-Gln] (HELM PEPTIDE1{D.W.R.Q.[O=C([C@H](CCCCCS)N[*:1])[*:2]].W.[dS]}$PEPTIDE1,PEPTIDE1,1:R1-7:R2$$$V2.0) = class 1
N=C(N)NCCC[C@H]1NC(=O)[C@@H]2CCCN2C(=O)[C@H](CO)NC(=O)[C@@H](Cc2c[nH]cn2)NC(=O)[C@H](CCCCCS)NC(=O)[C@H](CCCCN)NC(=O)[C@H](Cc2ccc(O)cc2)NC(=O)[C@H]2CCCN2C(=O)[C@@H](CCC(N)=O)NC1=O [des3.1.0, SHA-dHis-Ser-Pro-dArg-dGln-dPro-Tyr-Lys] (HELM PEPTIDE1{K.[O=C([C@H](CCCCCS)N[*:1])[*:2]].[dH].S.P.[dR].[dQ].[dP].Y}$PEPTIDE1,PEPTIDE1,1:R1-9:R2$$$V2.0) = class 0
CCCC[C@H]1NC(=O)[C@H](Cc2ccccc2)NC(=O)[C@H](CCCCCS)NC(=O)[C@@H](CCCNC(=N)N)NC(=O)[C@H](C)NC(=O)[C@@H](CO)NC(=O)[C@@H](C)NC(=O)[C@H](CCCCN)NC1=O [des4.3.1.3, SHA-Phe-dNle-Lys-dAla-dSer-Ala-dArg] (HELM PEPTIDE1{A.[dR].[O=C([C@H](CCCCCS)N[*:1])[*:2]].F.[CCCC[C@@H](N[*:1])C(=O)[*:2]].K.[dA].[dS]}$PEPTIDE1,PEPTIDE1,1:R1-8:R2$$$V2.0) = class 1
CCCC[C@H]1NC(=O)[C@H](Cc2ccccc2)NC(=O)[C@H](CCCCCS)NC(=O)[C@@H](CCCNC(=N)N)NC(=O)[C@H](CC(=O)O)NC(=O)[C@@H](CO)NC(=O)[C@@H](C)NC(=O)[C@H](CCCCN)NC1=O [des4.3.1, SHA-Phe-dNle-Lys-dAla-dSer-Asp-dArg] (HELM PEPTIDE1{D.[dR].[O=C([C@H](CCCCCS)N[*:1])[*:2]].F.[CCCC[C@@H](N[*:1])C(=O)[*:2]].K.[dA].[dS]}$PEPTIDE1,PEPTIDE1,1:R1-8:R2$$$V2.0) = class 0
CSCC[C@H]1NC(=O)[C@@H](CO)NC(=O)[C@H](CC(N)=O)NC(=O)[C@H](CC(=O)O)NC(=O)[C@@H]([C@H](C)O)NC(=O)[C@H](Cc2c[nH]c3ccccc23)NC(=O)[C@H](CCCCCS)NC(=O)[C@H](CCCCN)NC(=O)[C@@H](CC(=O)O)NC1=O [des2.1.1, SHA-Trp-dThr-Asp-Asn-dSer-dMet-dAsp-Lys] (HELM PEPTIDE1{D.N.[dS].[dM].[dD].K.[O=C([C@H](CCCCCS)N[*:1])[*:2]].W.[dT]}$PEPTIDE1,PEPTIDE1,1:R1-9:R2$$$V2.0) = class 0
C[C@H](O)[C@H]1NC(=O)[C@H](Cc2c[nH]c3ccccc23)NC(=O)[C@H](CCCCCS)NC(=O)[C@H](CCCCN)NC(=O)[C@@H](CC(=O)O)NC(=O)[C@@H](CCCCN)NC(=O)[C@@H](CO)NC(=O)[C@H](CC(N)=O)NC(=O)[C@H](CC(=O)O)NC1=O [des2.1.0, SHA-Trp-dThr-Asp-Asn-dSer-dLys-dAsp-Lys] (HELM PEPTIDE1{D.N.[dS].[dK].[dD].K.[O=C([C@H](CCCCCS)N[*:1])[*:2]].W.[dT]}$PEPTIDE1,PEPTIDE1,1:R1-9:R2$$$V2.0) = class 1

Check the entry NCCCC[C@H]1NC(=O)[C@H](CCC(N)=O)NC(=O)[C@H](CCC(=O)O)NC(=O)[C@@H]2CCCN2C(=O)[C@H](CC(N)=O)NC(=O)[C@H](CCCCCS)NC(=O)CNC(=O)[C@H](Cc2c[nH]c3ccccc23)NC1=O [des1.1.1, SHA-Asn-Pro-Glu-Gln-dLys-Trp-Gly] (HELM PEPTIDE1{E.Q.[dK].W.G.[O=C([C@H](CCCCCS)N[*:1])[*:2]].N.P}$PEPTIDE1,PEPTIDE1,1:R1-8:R2$$$V2.0) : does HDAC6 activity raw data (signal) equal or exceed 500000? class 0
